target: Cytosolic AR (Rattus norvegicus, UniProt P15207); construct: from tissue; host or cells: ventral prostate cytosol of Sprague-Dawley rats; experiment: AR competitive binding assay (3H-MIB displacement, rat ventral prostate cytosol)
Sequence (P15207 whole entry S389L): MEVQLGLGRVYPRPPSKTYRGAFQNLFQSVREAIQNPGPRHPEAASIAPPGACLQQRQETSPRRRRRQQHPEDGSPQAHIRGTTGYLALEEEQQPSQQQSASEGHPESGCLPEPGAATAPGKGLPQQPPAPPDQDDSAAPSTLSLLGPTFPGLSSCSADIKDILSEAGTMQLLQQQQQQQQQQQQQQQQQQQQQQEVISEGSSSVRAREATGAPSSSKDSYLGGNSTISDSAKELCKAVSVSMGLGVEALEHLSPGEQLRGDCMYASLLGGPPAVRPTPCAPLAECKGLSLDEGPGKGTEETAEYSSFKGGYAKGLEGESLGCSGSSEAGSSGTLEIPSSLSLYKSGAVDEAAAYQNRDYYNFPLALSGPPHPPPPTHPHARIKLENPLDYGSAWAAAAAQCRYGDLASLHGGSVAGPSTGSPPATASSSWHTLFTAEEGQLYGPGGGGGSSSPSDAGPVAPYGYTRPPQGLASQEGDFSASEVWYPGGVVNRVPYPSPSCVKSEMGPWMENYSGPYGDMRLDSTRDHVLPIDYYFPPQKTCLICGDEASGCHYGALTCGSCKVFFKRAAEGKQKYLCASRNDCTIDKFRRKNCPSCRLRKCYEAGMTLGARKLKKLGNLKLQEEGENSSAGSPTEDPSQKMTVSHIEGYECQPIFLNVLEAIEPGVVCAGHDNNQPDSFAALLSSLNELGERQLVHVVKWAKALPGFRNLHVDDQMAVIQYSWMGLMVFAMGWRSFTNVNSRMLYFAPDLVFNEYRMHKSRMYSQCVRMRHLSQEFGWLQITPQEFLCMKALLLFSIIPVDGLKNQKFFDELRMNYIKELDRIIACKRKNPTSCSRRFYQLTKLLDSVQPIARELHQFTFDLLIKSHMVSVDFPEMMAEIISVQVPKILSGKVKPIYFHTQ
quantity_kind: pKi
# pKi = -log10(concentration in molar units)

Example entries and their recorded answers appear below.
compound=C[C@H]1CN(S(=O)(=O)c2ccc(C#N)cc2)[C@@H](C)CN1c1ccc(C#N)c(C(F)(F)F)c1 recorded_value=6.20
compound="Cc1cc(F)ccc1OC[C@](C)(O)C(=O)Nc1ccc([N+](=O)[O-])c(C(F)(F)F)c1 [Compound S-13]" recorded_value=8.22

Task item: Given C[C@](O)(CCc1ccc(F)cc1)C(=O)Nc1ccc([N+](=O)[O-])c(C(F)(F)F)c1 [Compound X-5] , respond with its pKi.
Reply: 8.05
